This collection of values is drawn from ChEMBL document CHEMBL4011586.

Target: Amine oxidase [flavin-containing] B (Homo sapiens)
Sequence (P27338 whole entry): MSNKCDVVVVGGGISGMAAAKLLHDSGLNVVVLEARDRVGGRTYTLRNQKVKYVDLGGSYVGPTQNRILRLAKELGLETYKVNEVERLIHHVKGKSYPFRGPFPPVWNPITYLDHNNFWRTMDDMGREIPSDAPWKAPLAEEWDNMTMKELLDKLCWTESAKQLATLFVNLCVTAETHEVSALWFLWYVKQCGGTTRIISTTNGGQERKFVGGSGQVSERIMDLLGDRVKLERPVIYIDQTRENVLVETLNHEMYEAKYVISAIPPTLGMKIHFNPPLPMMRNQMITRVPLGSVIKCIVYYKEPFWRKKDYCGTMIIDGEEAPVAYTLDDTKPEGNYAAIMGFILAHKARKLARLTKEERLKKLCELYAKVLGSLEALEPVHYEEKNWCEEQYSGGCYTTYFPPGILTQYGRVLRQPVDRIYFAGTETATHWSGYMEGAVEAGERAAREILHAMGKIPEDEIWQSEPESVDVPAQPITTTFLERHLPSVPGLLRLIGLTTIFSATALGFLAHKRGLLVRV
Assay: Inhibition of recombinant human MAO-B expressed in baculovirus infected BTI insect cells assessed as reduction in H2O2 production using p-tyramine as substrate pretreated for 30 mins followed by substrate addition after 30 mins by Amplex red reagent based assay
Catalogue of IC50 readings, one per entry.
Field format: number, assumed nM, no unit text.

Substance Smiles: O=C1COC(c2ccc(/C=C/c3cccc(F)c3)cc2)=NN1
IC50 [nM]: 22

Attention now shifts to the item below.
Task item: Please give the measured IC50 for this compound: `O=C1COC(c2ccc(/C=N/c3cccc(Cl)c3)cc2)=NN1`
Reply: 551

====

species on record: Homo sapiens; experiment: Selectivity index, ratio of IC50 for recombinant human MAO-A to IC50 for recombinant human MAO-B
Catalogue of Ratio IC50 readings, one per entry.

Substance Smiles: O=C1COC(c2ccc(/N=C/c3cccc(Cl)c3)cc2)=NN1
Result: > 385

Substance Smiles: O=C1COC(c2ccc(/N=N/c3ccc(Cl)cc3)cc2)=NN1
Result: > 255

Substance Smiles: O=C1COC(c2ccc(NC(=O)Nc3cccc(Cl)c3)cc2)=NN1
Result: > 34

Substance Smiles: Cc1cccc(/N=N/c2ccc(C3=NNC(=O)CO3)cc2)c1
Result: > 4000

Substance Smiles: O=C1COC(c2ccc(/N=N/c3ccccc3)cc2)=NN1
Result: > 25000

Substance Smiles: O=C1COC(c2ccc(NC(=O)c3cccc(Cl)c3)cc2)=NN1
Result: > 357

Substance Smiles: O=C1COC(c2ccc(/C=C/c3ccc(Cl)cc3)cc2)=NN1
Result: > 185

Substance Smiles: Cc1cccc(/C=C/c2ccc(C3=NNC(=O)CO3)cc2)c1
Result: > 296

Task item: Please give the measured Ratio IC50 for this compound: `O=C1COC(c2ccc(/N=C/c3ccc(Cl)cc3)cc2)=NN1`
Reply: > 231

Task item: Please give the measured Ratio IC50 for this compound: `O=C1COC(c2ccc(/N=N/c3cccc(Cl)c3)cc2)=NN1`
Reply: > 348

Task item: Please give the measured Ratio IC50 for this compound: `O=C1COC(c2ccc(NCc3cccc(Cl)c3)cc2)=NN1`
Reply: > 37

Task item: Please give the measured Ratio IC50 for this compound: `CN1N=C(c2ccc(/N=C/c3cccc(Cl)c3)cc2)OCC1=O`
Reply: > 49

Task item: Please give the measured Ratio IC50 for this compound: `NC(=O)CN1N=C(c2ccc(NC(=O)c3cccc(Cl)c3)cc2)OCC1=O`
Reply: > 27
